Measurement Target: Acetylcholinesterase (Homo sapiens)
Sequence (P22303 whole entry): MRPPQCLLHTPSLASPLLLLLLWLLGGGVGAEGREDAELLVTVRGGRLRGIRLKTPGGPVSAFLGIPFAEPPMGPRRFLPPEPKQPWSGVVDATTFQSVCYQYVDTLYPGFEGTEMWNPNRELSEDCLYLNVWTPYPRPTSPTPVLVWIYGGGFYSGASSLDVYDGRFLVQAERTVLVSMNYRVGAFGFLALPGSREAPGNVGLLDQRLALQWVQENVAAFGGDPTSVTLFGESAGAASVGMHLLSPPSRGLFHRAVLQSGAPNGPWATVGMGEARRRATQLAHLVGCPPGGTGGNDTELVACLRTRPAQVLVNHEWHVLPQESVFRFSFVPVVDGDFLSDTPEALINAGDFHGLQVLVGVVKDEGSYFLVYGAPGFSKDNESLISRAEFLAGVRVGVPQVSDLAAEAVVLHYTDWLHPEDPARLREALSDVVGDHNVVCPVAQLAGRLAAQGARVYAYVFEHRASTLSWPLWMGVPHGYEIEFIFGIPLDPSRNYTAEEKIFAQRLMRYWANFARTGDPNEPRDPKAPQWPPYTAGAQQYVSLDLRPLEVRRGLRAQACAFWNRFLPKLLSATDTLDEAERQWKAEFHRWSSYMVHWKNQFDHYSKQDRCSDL
Attribute Measured: IC50 (µM)
Answers are plain numbers, in µM.

Guide cases for IC50, answers given:
molecule="CC(COC(=O)c1ccc(Oc2nc(Oc3ccc(C(=O)OCC(C)N(C)C)cc3)nc(Oc3ccc(C(=O)OCC(C)N(C)C)cc3)n2)cc1)N(C)C (stereo not drawn)" attribute_measured=IC50 unit_tag=µM reported_result=80.8
molecule="COc1nc(Oc2ccc(C(=O)OCC(C)N(C)C)cc2)nc(Oc2ccc(C(=O)OCC(C)N(C)C)cc2)n1 (stereo not drawn)" attribute_measured=IC50 unit_tag=µM reported_result=111

get_value(item= `C[N+](C)(C)CCOC(=O)c1ccc(Oc2nc(Oc3ccc(C(=O)OCC[N+](C)(C)C)cc3)nc(Oc3ccc(C(=O)OCC[N+](C)(C)C)cc3)n2)cc1` , readout=IC50) returns 0.3

###

So I've got IC50 readings for Cholinesterase (Homo sapiens, UniProt P06276), take a look.
Give bare numbers, in µM.

molecule=C[N+](C)(C)CCOC(=O)c1ccc(Oc2nc(Oc3ccc(C(=O)OCC[N+](C)(C)C)cc3)nc(Oc3ccc(C(=O)OCC[N+](C)(C)C)cc3)n2)cc1 attribute_measured=IC50 reported_result=3.9

Please look at the following molecule next.
get_value(item= CC(COC(=O)c1ccc(Oc2nc(Oc3ccc(C(=O)OCC(C)N(C)C)cc3)nc(Oc3ccc(C(=O)OCC(C)N(C)C)cc3)n2)cc1)N(C)C (stereo not drawn) , readout=IC50) returns 164

The reported numbers originate from ChEMBL document CHEMBL3779862.
